# experimental system: T1, AGS73.15 (MS497)
# T1 construct: It carries a human IgG Fc (detected with anti-human IgG Fc)
# T1 sequence (VH, as listed by the source, chain 1 of 2): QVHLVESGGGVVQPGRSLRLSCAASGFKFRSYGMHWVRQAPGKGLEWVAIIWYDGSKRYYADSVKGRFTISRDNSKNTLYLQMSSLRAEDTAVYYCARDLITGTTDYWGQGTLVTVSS
# T1 sequence (VL, as listed by the source, chain 2 of 2): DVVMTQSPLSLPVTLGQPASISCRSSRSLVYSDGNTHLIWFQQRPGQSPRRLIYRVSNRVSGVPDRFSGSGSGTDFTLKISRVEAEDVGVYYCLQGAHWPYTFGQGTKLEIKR
# test name: flow cytometry, blocking of AGS73.15 binding to CD3ε on human T cells, % binding, the axis reads nM
property: EC50

State the recorded EC50 for this entry: 6d59.id.1b71.1 (antibody, V domains shown, Anti-idiotypic antibody against 6d59) VL: DIVLTQSPASLAVSLGQRATISCKASQSVDYDGNGYMNWYQQKPGQPPKLLIYAASNLESGIPARFSGSGSGTDFTLNIHPVEEEDAATYYCQQSNEDPYTFGGGTKLEIKR V domain: EVQLQQSGSELASPGTSVKLSCKASGYTFTSYWVQWIKQRPGQGLEWIGAIYPGDGDLRSTQKFKGKATLTADKSSDTAYMQLSSLASEDSAVYYCARLDDFDLDYWGQGTTLIVSS 327 pM

Would you mind doing 6d59.id.1b73.1 (antibody, V domains shown, Anti-idiotypic antibody against 6d59) VH: QVQLQQSGPEVVKPGASVKMSCKASGYTFTDCVISWIKQRTGQGLEWIGEIHPGSGNTYNNEKFKGKATLTADKSSNTAYIQLSSLTSEDSAVYFCARVGDWYDDAMDYWGQGTSVTVSS VL: DIVLTQSPASLAVSLGQRATISCKASQSVDYDGNGYMNWYQQKPGQPPKLLIYAASNLESGIPARFSGSGSGTDFTLNIHPVEEEDAATYYCQQSNEDPYTFGGGTKLEIKR as well? 335 pM

Would you mind doing 6d59.id.1b67.1 (antibody, V domains shown, Anti-idiotypic antibody against 6d59) VH: QVTLKESGPGILKPSQTLSLTCSFSGFSLSTSGMGVGWIRQPSGKGLEWLAHIWWDDDKFYKPSLKNRLTISKDTSRNQVFLKITSVDTADAATYFCVRRSAYEAFTLDYWGQGTSVTVSS VL: DIMLTQSPASLAVSLGQRATISCKASQSVDYDGNGYLNWYQQKPGQPPKLLIYAASNLESGIPARFSGSGSGTDFTLNIHPVEEEDVATYYCQQSSEDPFTFGSGTKLEIKR as well? 560 pM

Would you mind doing 6d59.id.1b54.1 (antibody, V domains shown, Anti-idiotypic antibody against 6d59) VH: DVQLQESGPGLVKPSQSLSLTCSVTGYSITSSYYWNWIRQFPGNKLEWMGSIMYDGNNNYNPSLKNRISITRDTSKNQFFLKLNSVTTEDTATYYCARNMADYFGNTYDALDYWGQGTSVTVSS VL: DILLTQSPGSLAVSLGQRATISCKASQSADYGGDSYMSWYQQKPGQPPKLLIYAASNLESGTPARFSGSGSGTDFTLNIHPVEEEDAATYYCQQGNEDPWTFGGGTKLEIKR as well? 414 pM
